Hello, the source for this data is patent US20150056210A1, in case you need it.

- TGT: T1, Spacer-GST (human)
- T1 construct: also called recombinant Spacer-ADAMTS-5-GST protein
- ASSAY TEXT: ELISA, Spacer-GST coated at 10 µg/mL, scFv in solution, anti-V5 detection
ENDPOINT NAME: binding result

INSERT INTO measurements (binder, reported_result) VALUES
  ('CRB0102 scFv (scFv, VP16 fusion in the yeast selection; also called clone 15A) scFv: EVQLVESGSDVKKPGASVRVSCKVSGYRLTEYPIHWVRQAPGKGLEYMGGFDLENGVTKAAPRFRGRFTMTEDTSTDSVYMELKSLTSEDTAVYYCVKGPGYGALVTSFTSWGLGTLVTVSSSGGSTSGSGKPGSGEGSSGTETTLTQSPAFMSATPGDKIYISCKASQDIDDDMNWYQQKPGEAAIFIIQEATTLVPGIPPRFSGSGYGTDFTLTINNMESEDAAYYFCPQQDNVPLTFGGGTKVDIK', 'binds'),
  ('CRB0019 scFv (scFv, VP16 fusion in the yeast selection; also called clone 14) scFv: DIVMTQSHKFMSTSEGDRVSITCKASQDVGTAVAWYQQKPGQSPKLLIYWASTRHTGVPDRFTGSGSGTDFTLTISNVQSEDLADYICQQYCSHPYTFGAGTKLEIKRSGGSTSGSGKPGSGEGSRGTQVQLQQSGAEPVKPGASVKLSCTASGFNIKDTYMHWVKQRPEQGLEWIGRIDPAHGRTKYDPKFQGKATITADTSSNTAYLQLSSLSSEDTAVYYCAFYSYAIDYWGQGTSVTVSS', 'binds'),
  ('CRB0018 scFv (scFv, VP16 fusion in the yeast selection; also called clone 7A (mSPLINT)) scFv: DIVMTQSPASLAVSQGQRATISCRASESVDSYGNSFMHWYQQKPGQPPKLPIYLASNLESGVPARFSGSGSRTDFTLTIDPVEADDAATYYCQQNNEELTFGAGTKLELKRSGGSTSGSGKPGSSEGSSGTEVKLLESGGGLVQPGGSLKLSCTTSGFDFSRYWMSWVRQAPGKGLEWIGEINPDSSTINYTPSLKDKFIISRDNAKNTLYLQMSKVRSEDTALYYCARRSYWYFDVWGAGTSVTVSS', 'binds');
